# System tested: Calcium/calmodulin-dependent protein kinase type 1D (Homo sapiens);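 further: reported figure is the mean percent inhibition of CAMK1D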
# Settings: at 1 µM
Readout type: inhibition (%)
Numbers only here, please. The scale is %.

Ask | Look up inhibition: COc1cc2c(cc1Nc1nc(Nc3ccsc3C(N)=O)c3cc[nH]c3n1)N(C(=O)CN(C)C)CCC2(C)C
Reply | 30.8

Ask | Now give it for O=C(Nc1n[nH]c2cc(-c3ccc(F)cc3)ccc12)C1CC1 too.
Reply | 1.06

Ask | Repeat with COc1ccc(-c2cc(-c3c[nH]nc3-c3ccccn3)ccn2)cc1
Reply | -1.05

Ask | Same question for Cc1cccc2c1NC(=O)/C2=N\Nc1ccc(S(N)(=O)=O)cc1 please.
Reply | 1.75

Ask | Here is the next compound: CCN1CCC(CC(=O)Nc2n[nH]c3nnc(-c4cccc(F)c4F)cc23)CC1
Reply | -1.42

Ask | Now consider NS(=O)(=O)c1ccc(N/N=C2\C(=O)Nc3ccc4ncccc4c32)cc1 .
Reply | 9.02

Ask | # repeat for COc1cc2ncn(-c3cc(OCc4ccccc4C(F)(F)F)c(C(=O)N(C)C)s3)c2cc1OC
Reply | 0.6

Ask | Entry CC(=O)Nc1cccc(C#Cc2cncnc2Nc2ccc(OCc3cccc(F)c3)c(Cl)c2)c1 please
Reply | 3.77

Ask | Next up: Nc1nc(-c2ccc(F)cc2)c(-c2ccc3ncccc3n2)s1
Reply | 0.5

Ask | Item: COc1cccc(-c2c[nH]c3c(N/N=C/c4ccncc4)ncnc23)c1
Reply | 4.07

Ask | Same again, this time with c1ccc(COc2ccc(Nc3ncnc4ccc(-c5ccco5)cc34)cc2)cc1
Reply | 11.7

###

# System tested: Serine/threonine-protein kinase DCLK2 (Homo sapiens) (UniProt Q8N568);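 further: each value is a mean percent inhibition of DCLK2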
# Sequence (Q8N568 whole entry): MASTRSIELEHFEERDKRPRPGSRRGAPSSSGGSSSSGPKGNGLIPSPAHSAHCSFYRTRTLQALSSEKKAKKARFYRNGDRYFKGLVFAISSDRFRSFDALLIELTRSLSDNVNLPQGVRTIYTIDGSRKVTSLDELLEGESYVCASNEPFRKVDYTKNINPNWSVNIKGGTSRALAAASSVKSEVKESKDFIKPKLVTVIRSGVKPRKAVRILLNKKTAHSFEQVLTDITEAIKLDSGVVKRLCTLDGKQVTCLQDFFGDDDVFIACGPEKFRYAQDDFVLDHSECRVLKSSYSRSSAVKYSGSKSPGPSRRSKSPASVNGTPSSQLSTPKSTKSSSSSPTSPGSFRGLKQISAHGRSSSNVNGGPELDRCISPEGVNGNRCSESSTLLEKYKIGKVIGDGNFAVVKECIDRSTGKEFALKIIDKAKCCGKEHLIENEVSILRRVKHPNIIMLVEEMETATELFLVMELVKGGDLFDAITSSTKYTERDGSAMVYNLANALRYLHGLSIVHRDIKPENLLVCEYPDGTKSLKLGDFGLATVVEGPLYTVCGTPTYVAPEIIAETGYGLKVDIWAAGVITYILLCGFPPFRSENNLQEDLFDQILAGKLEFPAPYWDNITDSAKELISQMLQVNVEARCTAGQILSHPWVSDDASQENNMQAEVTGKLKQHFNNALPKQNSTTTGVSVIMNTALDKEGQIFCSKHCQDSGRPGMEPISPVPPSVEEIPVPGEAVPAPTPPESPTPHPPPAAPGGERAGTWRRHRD
# Settings: at 1 µM
Readout type: inhibition
Write your answer as a measured quantity: the number, then the unit.

Ask | Give inhibition (Serine/threonine-protein kinase DCLK2 (Homo sapiens) (UniProt Q8N568)) of the following molecule: COc1cc(/C=N/Nc2ncnc3[nH]ncc23)ccc1O
Reply | 1.35%

Ask | Now consider NS(=O)(=O)c1ccc(N/N=C2\C(=O)Nc3ccc4ncccc4c32)cc1 and answer again.
Reply | 7.76%

Ask | Cool, now CN1CCC(n2cnc(-c3ccc(F)cc3)c2-c2ccnc(N)n2)CC1
Reply | 1.94%

Ask | Input CN(C)CCOc1ccc(-c2nc(-c3ccncc3)c(-c3ccc4c(c3)CC/C4=N\O)[nH]2)cc1
Reply | 1.55%

Ask | Again, but for CC(C)(CO)CNC(=O)c1ccc2c(c1)/C(=N/Nc1ccc(S(N)(=O)=O)cc1)C(=O)N2
Reply | 1.76%

Ask | Same for CCn1c(-c2nonc2N)nc2ccccc21
Reply | -3.76%

Ask | Please do the same for Nc1ncc(-c2cccc(S(N)(=O)=O)c2)c2scc(-c3ccc(F)c(Cl)c3)c12 as well.
Reply | 0.61%

Ask | Could you do the same for [O-][S+]1CCN(Cc2ccc(-c3ccc4ncnc(Nc5ccc(OCc6cccc(F)c6)c(Cl)c5)c4c3)o2)CC1 , please?
Reply | 2.24%

###

# System tested: RAC-alpha serine/threonine-protein kinase (Homo sapiens) (UniProt P31749)
# Sequence (P31749 whole entry): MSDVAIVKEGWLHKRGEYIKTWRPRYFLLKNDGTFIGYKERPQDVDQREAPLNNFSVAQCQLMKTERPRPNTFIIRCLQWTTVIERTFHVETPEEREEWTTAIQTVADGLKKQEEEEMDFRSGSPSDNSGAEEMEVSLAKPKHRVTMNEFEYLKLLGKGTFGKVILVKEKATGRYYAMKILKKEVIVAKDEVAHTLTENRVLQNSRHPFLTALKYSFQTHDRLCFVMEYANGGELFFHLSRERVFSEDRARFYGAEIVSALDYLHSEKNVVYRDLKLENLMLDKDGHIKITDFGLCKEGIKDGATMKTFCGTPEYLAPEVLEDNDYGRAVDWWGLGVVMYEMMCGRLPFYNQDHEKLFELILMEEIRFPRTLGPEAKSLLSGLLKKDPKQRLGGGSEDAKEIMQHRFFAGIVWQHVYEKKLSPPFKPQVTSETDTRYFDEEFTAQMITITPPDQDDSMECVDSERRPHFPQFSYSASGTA
# Settings: at 1 µM
# Description: GSK_PKIS: AKT1 mean inhibition at 1 uM [Nanosyn]
Readout type: inhibition
Report the figure along with its unit, number first.

Ask | What measured inhibition is associated with COC(=O)Nc1nc2ccc(S(=O)(=O)c3ccc(NC(=O)Nc4cc(C(F)(F)F)ccc4F)cc3)cc2[nH]1 on RAC-alpha serine/threonine-protein kinase (Homo sapiens) (UniProt P31749)?
Reply | 0.21%

Ask | What do we get for COc1ccc2[nH]c3c4[nH]c5ccc(OC)cc5c4c4c(c3c2c1)C(=O)NC4=O ?
Reply | 4.28%

Ask | What do you get for COc1ccc(-c2oc3ncnc(N)c3c2-c2ccc(NC(=O)Nc3cc(C(F)(F)F)ccc3F)cc2)cc1 ?
Reply | 1.66%

Ask | Consider next the molecule CNC(=O)c1cccc(C#Cc2cncnc2Nc2ccc(OCc3cccc(F)c3)c(Cl)c2)c1 in the same way.
Reply | -0.5%

Ask | Thanks! And CCCN1CCC(c2ccc(Nc3nc(Nc4cc(F)ccc4C(N)=O)c4cc[nH]c4n3)c(OC)c2)CC1 ?
Reply | 0.33%

Recorded values, source ChEMBL document CHEMBL1961873.
